Value source: patent US20250059187A1

target-system: K-Ras G12E (Homo sapiens, UniProt P01116, G12E)
Construct: human K-Ras (G12E, aa 1-169); 6xHis tag + TEV cleavage site (N, cleaved yes); made in house; host or cells: E. coli BL21(DE3)
test-summary: Covalent modification of test protein after incubation with compound
Type: binding
protocol-conditions: 24-h incubation with 100 μM compound at 23° C. at pH 7.5
attribute-measured: % covalent modification of K-Ras G12E (%)
Reply with just the number (in %).

Query: Can you look up the measured % covalent modification of K-Ras G12E of CN1CCC[C@@H]1COc1nc2c(c(N3CCC4(CC3)CC(=O)O4)n1)CCN(c1cccc3cccc(Cl)c13)C2 for me?
Result: 0

Query: Would you mind doing O=C1O[C@@H]2CCN(c3ncnc4c(F)c(-c5ccccc5F)c(Cl)cc34)C[C@H]12 as well?
Result: 0

Query: Would you mind doing C#Cc1c(F)ccc2cc(O)cc(-c3ncc4c(N5C[C@H]6CC[C@@H](C5)N6C(=O)[C@@H]5OC(=O)C5(C)C)nc(OC[C@@]56CCCN5C[C@H](F)C6)nc4c3F)c12 [(R)-7] as well?
Result: 0

Query: Would you mind doing CC1(c2cc(NCC(=O)N3CC[C@H]4OC(=O)[C@@]4(C)C3)c(O)cc2Cl)CC1 as well?
Result: 0

Query: Would you mind doing CN1CCC[C@H]1COc1nc2c(c(N3CCC4OC(=O)C4C3)n1)CCN(c1cccc3cccc(Cl)c13)C2 (stereo partly drawn) as well?
Result: 7.0

Query: Would you mind doing O=C1OCC12CCN(c1nc(OCC34CCCN3CCC4)nc3c(F)c(-c4cccc5cccc(Cl)c45)ncc13)CC2 as well?
Result: 0
